Entries annotated with measured Aff A*30:02 (ED50)
molecular target: HLA-A*30:02 (Homo sapiens, UniProt P04439, D101N/D140H/D185E/E176R/F33S/G80R/H175R/K168Q/Q94H/R138E/R41S/V100E); format: binding

Observe how each entry below is paired with its result.
IYAGSLSAL :: 4E -06 M
AMKGDLQSS :: 1E -07 M
RSSNLKFQD :: 1E -05 M
KAADMW GPS :: 7E -09 M
LSMAGSSAM :: 3E -06 M

In the following, a different substance is considered.
Field request: Aff A*30:02 (ED50) | item: KLVANNT RL
1E -07 M

* * *

Entries annotated with measured Bind A*30:02
target: HLA-A*30:02 (Homo sapiens, UniProt P04439, D101N/D140H/D185E/E176R/F33S/G80R/H175R/K168Q/Q94H/R138E/R41S/V100E); type: binding; conditions: percent relative the binding of positive control peptide […]; duplicated experiments; positive binder >40%
Value expressed in %; do not type the unit.

RAQDDYNGW :: 119
AAGGHNAVF :: 67
GLSMAGSSA :: 0
RAVKPT GSA :: 18
LIGLAMGDA :: 5
LAMGDAGGY :: 74

Field request: Bind A*30:02 | item: YQSGLSIVM
123

Field request: Bind A*30:02 | item: YYQSGLSIV
37

Field request: Bind A*30:02 | item: RSSNLKFQD
104

Field request: Bind A*30:02 | item: GPSLIGLAM
0

Field request: Bind A*30:02 | item: GSAAIGLSM
9

Field request: Bind A*30:02 | item: IPKLVANNT
0

Field request: Bind A*30:02 | item: VRSSNLKFQ
0

Field request: Bind A*30:02 | item: GLSIVMPVG
0

Field request: Bind A*30:02 | item: FLENFVRSS
0

Field request: Bind A*30:02 | item: LKFQDAYNA
91

Field request: Bind A*30:02 | item: LSANRAVKP
15

* * *

molecular target: HLA-A*02:01 (Homo sapiens, UniProt P04439, D140Y/D185E/D98H/E176V/E277Q/G131W/G231S/I119V/I121R/I166T/I218V/L300P/L318F/N151K/N90K/P208A/P217A/Q86G/Q94H/R138H/R169H/T345S); format: binding; conditions: […]; peptide quantity for 50% binding saturation
quantity-name: Aff A*02:01 (ED50)

Observe how each entry below is paired with its result.
QT YKWETFL :: 3E -07 M
GT HSWEYWG :: 2E -06 M

In the following, a different substance is considered.
Field request: Aff A*02:01 (ED50) | item: AMKGDLQSS
2E -07 M

* * *

Entries annotated with measured Bind B*58:01
target: HLA-B*58:01 (Homo sapiens, UniProt P01889, A329T/C349S/D201E/D98Y/E176V/E187L/E204Q/E69T/G107R/I218V/I90N/K202T/L105A/L119I/N104I/N87E/Q89R/Q94S/R106L/R155S/R180L/R86G/S101N/S121R/S35A/S48A/T118I/V127L/V306I/V36M/Y140S/Y91M); assay type: binding; conditions: percent relative the binding of positive control peptide IAMESIVIW; duplicated experiments; positive binder >40%
Value expressed in %; do not type the unit.

AWGGSGSEA [Rv3875_42–50] :: 6

Field request: Bind B*58:01 | item: MTEQQWNFA [Rv3875_1–9]
2

Field request: Bind B*58:01 | item: SLTKLAAAW [Rv3875_35–43]
48

Field request: Bind B*58:01 | item: AMASTEGNV [Rv3875_82–90]
0

* * *

biological target: HLA-B*58:01 (Homo sapiens, UniProt P01889, A329T/C349S/D201E/D98Y/E176V/E187L/E204Q/E69T/G107R/I218V/I90N/K202T/L105A/L119I/N104I/N87E/Q89R/Q94S/R106L/R155S/R180L/R86G/S101N/S121R/S35A/S48A/T118I/V127L/V306I/V36M/Y140S/Y91M); type: binding; settings: percent relative the binding of positive control peptide […]; duplicated experiments; positive binder >40%
In plain terms, low Bind B*58:01, meaning strictly below 30%, gives class 1, and everything else gives class 0.

In plain terms, does GQSSFYSDW come in under 30% for Bind B*58:01?
class 0

In plain terms, does RAQDDYNGW come in under 30% for Bind B*58:01?
class 0

In plain terms, does DW YSPACGK come in under 30% for Bind B*58:01?
class 1

In plain terms, does MGRDIKVQF come in under 30% for Bind B*58:01?
class 0

* * *

Entries annotated with measured Bind C*07:01
target: HLA-C*07:01 (Homo sapiens, UniProt P10321, K90N/S123Y); format: binding; details: percent relative the binding of positive control peptide […]; duplicated experiments; positive binder >40%
Value expressed in %; do not type the unit.

Observe how each entry below is paired with its result.
AGGYKAADM :: 0
RSSNLKFQD :: 64
DINTPAFEW :: 10
IPAEFLENF :: 2
FLENFVRSS :: 5

Field request: Bind C*07:01 | item: NTMAMMARD [Rv0288_79–87]
0

Field request: Bind C*07:01 | item: CGNGTPNEL
28

Field request: Bind C*07:01 | item: PSQGMGPSL
29

Field request: Bind C*07:01 | item: KAGCQTYKW
31

Field request: Bind C*07:01 | item: MGDAGGYKA
0

* * *

molecular target: HLA-A*02:01 (Homo sapiens, UniProt P04439, D140Y/D185E/D98H/E176V/E277Q/G131W/G231S/I119V/I121R/I166T/I218V/L300P/L318F/N151K/N90K/P208A/P217A/Q86G/Q94H/R138H/R169H/T345S); format: binding; details: percent relative the binding of positive control peptide FLPSDFFPSV; plate-bound monomer 0.5 µg/ml; duplicated experiments; positive binder >40%
quantity-name: Bind A*02:01
Answer format: number, then unit.

Field request: Bind A*02:01 | item: LTKLAAAWG [Rv3875_36-44]
15%

Field request: Bind A*02:01 | item: EAAASAIQG [Rv3875_12–20]
0%

Field request: Bind A*02:01 | item: AGQAMASTE [Rv3875_79–87]
0%

Field request: Bind A*02:01 | item: AAAWGGSGS [Rv3875_40-48]
8%

Field request: Bind A*02:01 | item: AAWGGSGSE [Rv3875_41–49]
29%

Field request: Bind A*02:01 | item: IQGNVTSIH [Rv3875_18–26]
51%

Field request: Bind A*02:01 | item: VQQKWDATA [Rv3875_54–62]
54%

Field request: Bind A*02:01 | item: LAAAWGGSG [Rv3875_39-47]
8%

* * *

Entries annotated with measured Bind A*68:01
molecular target: HLA-A*68:01 (Homo sapiens, UniProt P04439, A269V/D185E/E176V/E277Q/E87N/F33Y/G231S/I121M/I166T/I218V/L180W/L300P/L318F/N151K/P208A/P217A/Q86R/R169H/T345S); assay type: binding; conditions: percent relative the binding of positive control peptide […]; duplicated experiments; positive binder >40%
Value expressed in %; do not type the unit.

Observe how each entry below is paired with its result.
GTPNELGGA :: 0
LSMAGSSAM :: 51
SFYSDW YSP :: 0
SGLSIVMPV :: 0
GGNNSPAVY :: 3
MW GPSSDPA :: 7
MAGSSAMIL :: 0
YLLDGLRAQ :: 15
NAMKGDLQS :: 15
GKAGCQTYK :: 72

Field request: Bind A*68:01 | item: KGDLQSSLG
40

Field request: Bind A*68:01 | item: NTMAMMARD [Rv0288_79–87]
67

Field request: Bind A*68:01 | item: AGGYKAADM
0

Field request: Bind A*68:01 | item: AAYHPQQFI
47

Field request: Bind A*68:01 | item: PSQGMGPSL
0

Field request: Bind A*68:01 | item: MSQIMYNYP [Rv0288_1–9]
29

* * *

molecular target: HLA-A*24:02 (Homo sapiens, UniProt P04439, D101N/D140Y/D185E/E176V/E190D/F33S/G103R/G107R/I119L/I121M/I306V/K335N/L105A/L180Q/L300P/N151K/N90K/Q86E/Q94H/R106L/R138H/R89G/T104I/T345S/V100E/W191G/Y123F); format: binding; conditions: percent relative the binding of positive control peptide […]; duplicated experiments; positive binder >40%
In plain terms, low Bind A*24:02, meaning strictly below 20%, gives yes (1), and everything else gives no (0).

The following substances have reported results that may help.
SFYSDW YSP :: yes (1)
YNAAGGHNA :: yes (1)
SLSALLDPS :: yes (1)
TMLGHAGDM [Rv0288_10–18m1] :: yes (1)

In plain terms, does YSDWYSPAC come in under 20% for Bind A*24:02?
yes (1)

In plain terms, does RAVKPT GSA come in under 20% for Bind A*24:02?
yes (1)

In plain terms, does QWLSANRAV come in under 20% for Bind A*24:02?
no (0)

In plain terms, does KGDLQSSLG come in under 20% for Bind A*24:02?
yes (1)

In plain terms, does NAVFNFPPN come in under 20% for Bind A*24:02?
yes (1)

In plain terms, does QQIPKLVAN come in under 20% for Bind A*24:02?
yes (1)

In plain terms, does VFNFPPNGT come in under 20% for Bind A*24:02?
no (0)

In plain terms, does PAVYLLDGL come in under 20% for Bind A*24:02?
no (0)

In plain terms, does GKAGCQTYK come in under 20% for Bind A*24:02?
yes (1)

In plain terms, does LDPSQGMGP come in under 20% for Bind A*24:02?
yes (1)

In plain terms, does MW GPSSDPA come in under 20% for Bind A*24:02?
no (0)

In plain terms, does MKGDLQSSL come in under 20% for Bind A*24:02?
no (0)

In plain terms, does RSSNLKFQD come in under 20% for Bind A*24:02?
no (0)

In plain terms, does MILAAYHPQ come in under 20% for Bind A*24:02?
yes (1)

In plain terms, does RAQDDYNGW come in under 20% for Bind A*24:02?
no (0)

In plain terms, does AGSSAMILA come in under 20% for Bind A*24:02?
yes (1)

In plain terms, does SGLSIVMPV come in under 20% for Bind A*24:02?
yes (1)
